Entries and their melting point

Consider the worked cases shown below.
>  <molecule>
COc1cc(C=O)ccc1OC(=O)NCCc1ccccc1

>  <melting point>
133 to 138 °C

$$$$
>  <molecule>
CCOc1cc2cc(CO)c(CO)c(-c3ccnc(Br)c3)c2cc1OC

>  <melting point>
156 to 157 °C

$$$$
>  <molecule>
CC(NC(=O)C1CCNCC1)c1ccccc1 (stereo unspecified)

>  <melting point>
136 °C

$$$$
>  <molecule>
NCc1ccc(CC(N)=O)cc1

>  <melting point>
138 to 140 °C

$$$$
>  <molecule>
CC12CCC3c4ccc(Cl)cc4CCC3C1CCC2NCc1cccc(C(F)(F)F)c1 (stereo unspecified)

>  <melting point>
97 to 101 °C

$$$$

Task: Report measured melting point; entry is CCCCCCOc1ccc(C=C(C#N)c2cccnc2)cc1
Result: 67 to 68 °C

Task: Give the value of melting point reported for the following: CC(C)(C)OC(=O)CN1CCCNc2c1c(=O)c2=O
Result: 167 to 168 °C

Task: Entry CC(C)(C)OC(=O)n1cnc2c(N)cccc21 needs its melting point filled in; supply it.
Result: 117 °C

Task: Provide only the value of recorded melting point for CCCCCOc1ccc(C#CC2(O)CN3CCC2CC3)cc1 (stereo unspecified)
Result: 153 to 154 °C

Task: Look up melting point of COc1ccc(C2=NCCc3c(C)cccc32)cc1 and report it.
Result: 83 to 83.5 °C

Task: Supply recorded melting point for Cc1cc2c(cc1Oc1ccc(C(=O)NNc3ccc4c(C)nn(C)c4n3)o1)C(C)(C)CC(C)C2(C)C (stereo unspecified) here.
Result: 169 to 170 °C
